Data provenance is patent US6440995B1.

Counter-ions that a name gives are not always drawn.
endpoint_label: melting point

Please review the following examples before continuing.
compound: COc1cccc2c(NCC(O)CO)cc(-c3ccccc3)nc12.Cl (racemic)
melting point: 110 to 116 °C
--
compound: OCC(O)CNc1cc(-c2ccc3c(c2)CCO3)nc2ccccc12 (racemic) (as salt: hydrochloride)
melting point: 267 to 270 °C
--
compound: Cc1ccc(-c2cc(NCCO)c3ccc(C)cc3n2)cc1.Cl
melting point: 260 to 263 °C
--
compound: Cc1cccc(-c2cc(NCC(O)CO)c3ccccc3n2)c1.Cl (racemic)
melting point: 208 to 215 °C
--
compound: COc1ccc(-c2cc(N(C)CCO)c3ccccc3n2)cc1.Cl
melting point: 201 to 204 °C
--
compound: Cl.Cl.NCC(O)CNc1cc(-c2ccc(Cl)cc2)nc2ccccc12 (racemic)
melting point: 283 to 287 °C
--
compound: COc1ccc(-c2cc(NCCO)c3ccc(C)cc3n2)cc1.Cl
melting point: 233 to 238 °C
--
compound: O=C(O)/C=C/C(=O)O.OCC(O)CNc1cc(/C=C/c2ccccc2)nc2ccccc12 (racemic)
melting point: 220 to 222 °C

Now consider a different compound.
Ask: Returns the measured melting point for the input compound. Input: CNCC(O)COc1cc(-c2ccccc2)nc2cc(Cl)ccc12.Cl (racemic)
Result: 192 to 193 °C

* * *

test_system: NMDA receptor (Rattus norvegicus, UniProt P35439+Q00960)
Construct: Membranes were prepared by homogenization of the whole brain minus cerebellum and medulla oblongata
Sequence (Q00960 27-1482, other chains not shown): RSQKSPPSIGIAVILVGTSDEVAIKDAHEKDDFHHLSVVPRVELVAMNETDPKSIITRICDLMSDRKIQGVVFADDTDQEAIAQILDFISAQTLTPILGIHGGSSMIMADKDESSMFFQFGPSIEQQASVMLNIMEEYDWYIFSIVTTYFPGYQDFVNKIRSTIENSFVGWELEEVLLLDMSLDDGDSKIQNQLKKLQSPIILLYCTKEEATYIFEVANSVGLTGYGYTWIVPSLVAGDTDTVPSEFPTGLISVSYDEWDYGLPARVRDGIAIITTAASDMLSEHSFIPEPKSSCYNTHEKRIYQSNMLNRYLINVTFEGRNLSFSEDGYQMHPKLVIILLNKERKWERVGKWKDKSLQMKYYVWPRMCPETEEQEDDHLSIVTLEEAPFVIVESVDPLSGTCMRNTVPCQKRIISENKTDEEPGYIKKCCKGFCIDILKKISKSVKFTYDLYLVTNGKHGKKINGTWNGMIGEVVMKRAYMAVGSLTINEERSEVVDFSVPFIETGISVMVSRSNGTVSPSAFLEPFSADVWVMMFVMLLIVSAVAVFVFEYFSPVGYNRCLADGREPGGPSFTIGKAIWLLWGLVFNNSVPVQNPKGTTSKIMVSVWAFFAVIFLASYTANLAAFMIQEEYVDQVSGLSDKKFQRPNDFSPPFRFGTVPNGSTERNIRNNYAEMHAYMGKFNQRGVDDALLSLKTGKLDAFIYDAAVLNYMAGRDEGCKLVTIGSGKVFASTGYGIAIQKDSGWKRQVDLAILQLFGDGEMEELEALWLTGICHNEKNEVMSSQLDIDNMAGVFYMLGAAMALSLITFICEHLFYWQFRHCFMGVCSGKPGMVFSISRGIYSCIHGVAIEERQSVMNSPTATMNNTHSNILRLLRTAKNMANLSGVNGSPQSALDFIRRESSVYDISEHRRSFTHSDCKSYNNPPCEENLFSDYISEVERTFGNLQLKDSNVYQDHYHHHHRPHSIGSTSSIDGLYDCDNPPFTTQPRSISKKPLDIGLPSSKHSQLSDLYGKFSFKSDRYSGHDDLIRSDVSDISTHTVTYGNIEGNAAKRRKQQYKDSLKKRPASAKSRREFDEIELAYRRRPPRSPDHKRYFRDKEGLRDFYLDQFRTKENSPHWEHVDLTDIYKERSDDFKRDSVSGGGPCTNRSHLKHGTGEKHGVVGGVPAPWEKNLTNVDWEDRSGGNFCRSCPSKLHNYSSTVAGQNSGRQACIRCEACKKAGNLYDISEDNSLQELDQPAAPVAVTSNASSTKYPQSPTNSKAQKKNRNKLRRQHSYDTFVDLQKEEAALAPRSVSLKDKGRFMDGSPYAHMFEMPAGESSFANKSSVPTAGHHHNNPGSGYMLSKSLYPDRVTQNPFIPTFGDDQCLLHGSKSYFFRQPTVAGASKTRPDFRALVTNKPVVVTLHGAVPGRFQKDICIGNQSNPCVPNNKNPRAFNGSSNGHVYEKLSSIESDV
measurement_notes: 3H-Ro 25-6981 binding (displacement, rat brain membranes)
measurement_setup: displacement of 5 nM 3H-Ro 25-6981; rat whole brain minus cerebellum and medulla oblongata membranes; 2 hours at 4° C., pH 7.4
Counter-ions that a name gives are not always drawn.
Here, each record is paired with measured IC50 data.
Field: numeric (nM). Do not append units.

compound: NCC(O)CNc1cc(N2CCc3ccccc3C2)nc2ccccc12 (racemic) [Example 10, hydrochloride]
reported_result: 30
//
compound: COc1ccc(-c2cc(N(C)CCO)c3ccccc3n2)cc1.Cl [Example 46, hydrochloride]
reported_result: 130
//
compound: OCC(O)CNc1cc(-c2ccc3c(c2)CCO3)nc2ccccc12 (racemic) [Example 32, hydrochloride]
reported_result: 66
//
compound: CNCC(O)CNc1cc(-c2ccc(OC)cc2)nc2ccccc12 (racemic) [Example 77, hydrochloride]
reported_result: 58

Ask: Returns the measured IC50 for the input compound. Input: Cl.OCCNc1cc(-c2ccc3c(c2)CCCC3)nc2ccccc12 [Example 18, hydrochloride]
Result: 40

Ask: Returns the measured IC50 for the input compound. Input: Cc1ccc(-c2cc(NCC(O)CN)c3ccccc3n2)cc1.Cl (racemic) [Example 2, hydrochloride]
Result: 20

* * *

Here, each record is paired with measured melting point data.

Please review the following examples before continuing.
compound: Cl.OCC(O)CNc1cc(-c2ccccc2)nc2ccccc12 (racemic)
endpoint_label: melting point
reported_result: 225 to 227 °C

compound: Cc1ccc(-c2cc(NCC(O)CN)c3ccccc3n2)cc1.Cl (racemic)
endpoint_label: melting point
reported_result: 264 to 272 °C

compound: CC(C)NCC(O)COc1cc(-c2ccccc2)nc2ccccc12 (racemic)
endpoint_label: melting point
reported_result: 109 to 111 °C

compound: Cc1ccc(-c2cc(NC[C@H](C)O)c3ccc(C)cc3n2)cc1.Cl
endpoint_label: melting point
reported_result: 264 to 267 °C

compound: CC(O)CNc1cc(-c2ccccc2)nc2ccccc12.Cl (racemic)
endpoint_label: melting point
reported_result: 251 to 253 °C

Ask: Returns the measured melting point for the input compound. Input: CNCC(O)COc1cc(-c2ccsc2)nc2ccccc12.Cl (racemic)
Result: 236 to 238 °C

Ask: Returns the measured melting point for the input compound. Input: Cl.NCC(O)CNc1cc(-c2ccccc2)nc2ccccc12 (racemic)
Result: 291 to 294 °C

Ask: Returns the measured melting point for the input compound. Input: `COc1cccc2c(NCCO)cc(-c3ccccc3)nc12.Cl`
Result: 205 to 209 °C
